// data source = patent US9845319B2

molecular target: human RORγt ligand binding domain (RORγt LBD) (Homo sapiens, UniProt P51449); construct: His-tag (N); TurboTEV protease cleavage site (ENLYFQG) (N); assay: RORγt ThermoFluor assay; conditions: estimated from thermal shift concentration response
Sequence (P51449 with tags, fused parts or gaps): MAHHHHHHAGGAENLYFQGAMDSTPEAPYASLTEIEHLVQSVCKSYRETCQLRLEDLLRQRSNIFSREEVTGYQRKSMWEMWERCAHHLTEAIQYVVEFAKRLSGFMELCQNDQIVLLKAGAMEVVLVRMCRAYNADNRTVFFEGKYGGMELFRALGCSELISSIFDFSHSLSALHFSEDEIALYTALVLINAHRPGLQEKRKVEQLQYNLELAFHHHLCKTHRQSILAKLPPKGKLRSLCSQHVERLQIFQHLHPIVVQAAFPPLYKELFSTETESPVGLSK
pKd: −log10 of the molar value.
experimental-readout: pKd

In the examples that follow, each entry is paired with its recorded pKd.
C[C@H](NS(=O)(=O)c1ccc(-c2sc(-c3nnc(C(C)(C)O)o3)nc2C(=O)N2CC(F)C[C@@H]2C)c(C(F)F)c1F)C(F)(F)F (stereo partly drawn) :: 6.57
CC[C@H](NS(=O)(=O)c1ccc(-c2sc(-c3nnc(C(C)(C)O)o3)nc2C(=O)N2CCC(F)(F)CC2)c(F)c1C(F)F)C(F)(F)F :: 9.33
C[C@H](NS(=O)(=O)c1ccc(-c2sc(-c3nnc(CS(C)(=O)=O)o3)nc2C(=O)N2CCC(F)(F)CC2)c(Cl)c1Cl)C(F)(F)F :: 8.33
CC[C@H](NS(=O)(=O)c1ccc(-c2sc(-c3nnc(C(C)(C)O)o3)nc2C(=O)N(CC)CC)c(Cl)c1Cl)C(F)(F)F :: 9.00
C[C@H](NS(=O)(=O)c1ccc(-c2sc(-c3cc(C(C)(C)O)on3)nc2C(=O)N2CCC(F)(F)CC2)c(Cl)c1Cl)C(F)(F)F :: 8.89

1: C[C@H]1CCCN1C(=O)c1nc(-c2nnc(C(C)(C)O)o2)sc1-c1ccc(C(O)(C(F)(F)F)C(F)(F)F)cc1C(F)F
2: C[C@H]1CCCN1C(=O)c1nc(-c2nnc(C(C)(C)O)o2)sc1-c1ccc(C(O)(C(F)(F)F)C(F)(F)F)cc1C(F)(F)F
IN: Sorting by pKd in descending order, would 1 or 2 appear first? Return value: the label identifying the chosen record.
OUT: 2
(2: 9.00, 1: 7.77)
